assay comment: qHTS of pediatric cancer cell lines to identify multiple opportunities for drug repurposing: Confirmatory screen for SK-N-MC cells (AID 1347111);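 also: potency is read from the fitted curve at half-maximal effect; cells exposed to compound for 48 h before the readout; nearly all actives have a fitted effect of over 70% in size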
condition context: SK-N-MC cell viability; series mostly up to 45.9 µM
Inconclusive results are not listed. The source made the active and inactive calls. Calls follow the shape of the dose curve; as a rule, active = well fitted cell-killing curve with a large enough effect; inconclusive = small, poorly fitted or top-dose-only effect; inactive = no such curve, though single readings can be large or run the other way.
assay readout: Potency

substance_smiles=Cc1ccc(-c2ncn(-c3ccc(Nc4nccc(-c5cccc(N6CCOCC6)c5)n4)cc3)n2)cn1 test_value="120 nM (active)"

// recorded Potency for Cc1cnc(-c2cnc(NCCNc3ccc(C#N)cn3)nc2-c2ccc(Cl)cc2Cl)[nH]1 : 11700 nM (active)

// recorded Potency for CNC(=O)c1c(F)cccc1Nc1nc(Nc2cc3c(cc2OC)CCN3C(=O)CN(C)C)nc2[nH]ccc12 : 414 nM (active)

// recorded Potency for COc1c(OCCCN2CCOCC2)ccc2c3n(c(=NC(=O)c4cnc(N)nc4)nc12)CCN3 : 1020 nM (active)

###

measured target: Calcium and integrin-binding protein 1 (Homo sapiens)
assay comment: Primary qHTS for Identification of Calcium Integrin Binding Protein 1 (CIB1) Competitor (AID 1508620);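 also: GST tagged CIB1 binding a fluorescein labelled alphaIIb integrin peptide tracer; top concentration of the series differs between compounds; % is scaled to controls: 0 for no effect and ±100 for the full control effect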
condition context: CIB1-GST / FITC-alphaIIb peptide fluorescence polarization; series mostly up to 57.7 µM
From the text: Assay Provider: Ulhas P. Naik, PhD Sidney Kimmel Medical College Thomas Jefferson University, Philadelphia, PA Primary function of platelets is to maintain hemostasis. At the site of vascular injury, platelets adhere to adhesive proteins such as collagen and von Willebrand factor. […] PROTOCOL TABLES SEQUENCE No. (1, 2, 3, etc.); […] […] 7; ViewLux Fluorescent Polization Read: excitation = 480(20) / emission = 540(25) S and P; FITC Dichroic mirror.
Results filed as inconclusive are left out. Calls of active or inactive are those of the source. Calls come from the whole dose curve; as a rule, active = well fitted inhibition curve with a large enough effect; inconclusive = small, poorly fitted or top-dose-only effect; inactive = flat fitted curve, though single readings scatter.
assay readout: activity change, negative = inhibition

compound=CC(C)c1cc(C(=O)N2Cc3ccc(CN4CCN(C)CC4)cc3C2)c(O)cc1O assay_readout="activity change, negative = inhibition" test_value=inactive
compound=COc1c(OCCCN2CCOCC2)ccc2c3n(c(=NC(=O)c4cnc(N)nc4)nc12)CCN3 assay_readout="activity change, negative = inhibition" test_value=inactive
compound=C[C@@H](Oc1cc(-c2cnn(C3CCNCC3)c2)cnc1N)c1c(Cl)ccc(F)c1Cl assay_readout="activity change, negative = inhibition" test_value=inactive
compound=CC1(C)O[C@@H]2C[C@@H]3[C@H]4C[C@@H](F)C5=CC(=O)C=C[C@]5(C)[C@@]4(F)[C@@H](O)C[C@]3(C)[C@]2(C(=O)CO)O1 assay_readout="activity change, negative = inhibition" test_value=inactive

// recorded activity change, negative = inhibition for CNC(=O)c1ccc(-c2cnc3ncc(Cc4ccc5ncccc5c4)n3n2)cc1F : inactive

// recorded activity change, negative = inhibition for CN(C)CCCN=c1c2ccccc2n(C)c2[nH]c(=O)n(C)c(=O)c12 : inactive

// recorded activity change, negative = inhibition for CNC(=O)c1ccc(N2C(=S)N(c3cnc(C#N)c(C(F)(F)F)c3)C(=O)C23CCC3)cc1F : inactive

// recorded activity change, negative = inhibition for COc1ccc(CC2c3cc(OC)c(OC)cc3CC[N+]2(C)CCC(=O)OCCCCCOC(=O)CC[N+]2(C)CCc3cc(OC)c(OC)cc3C2Cc2ccc(OC)c(OC)c2)cc1OC (stereo unspecified) : -3.2% [at 6.45 µM] (inactive)

// recorded activity change, negative = inhibition for O=C(O)c1ccc2cc(-c3ccc(O)c(C45CC6CC(CC(C6)C4)C5)c3)ccc2c1 : inactive

// recorded activity change, negative = inhibition for CN(c1ncccc1CNc1nc(Nc2ccc3c(c2)CC(=O)N3)ncc1C(F)(F)F)S(C)(=O)=O : inactive

// recorded activity change, negative = inhibition for COc1cc2c(Oc3ccc4[nH]c(C)cc4c3F)ncnc2cc1OCCCN1CCCC1 : inactive

// recorded activity change, negative = inhibition for Nc1nccc(Oc2ccc(NC(=O)c3c[nH]cc(-c4ccc(F)cc4)c3=O)cc2F)c1Cl : inactive

// recorded activity change, negative = inhibition for O=C(O)c1ccc2c(c1)nc(Nc1cccc(Cl)c1)c1ccncc12 : inactive

// recorded activity change, negative = inhibition for Cc1ccc(S(=O)(=O)Nc2cc(Cl)ccc2C(=O)Nc2nc(-c3ccccc3)cs2)cc1 : inactive

// recorded activity change, negative = inhibition for C=CC(=O)Nc1cccc(Oc2nc(Nc3ccc(N4CCN(C)CC4)cc3OC)ncc2Cl)c1 : inactive

// recorded activity change, negative = inhibition for COC(=O)Nc1ccc(-c2nc(N3CCOCC3)c3cnn(C4CCN(Cc5cccnc5)CC4)c3n2)cc1 : inactive

// recorded activity change, negative = inhibition for CCCCN1CCC(CNC(=O)c2c3n(c4ccccc24)CCCO3)CC1 : inactive

// recorded activity change, negative = inhibition for O=C(Nc1ncc(-c2cc(C(F)F)nn2-c2c(Cl)cccc2Cl)s1)C1CC1 : inactive

// recorded activity change, negative = inhibition for CC(C)c1nn(-c2c(Cl)cccc2Cl)c2nc(Cc3ccc(OCCO)cc3)[nH]c(=O)c12 : inactive

// recorded activity change, negative = inhibition for COc1cc2c(cc1-c1c(C)noc1C)ncc1[nH]c(=O)n([C@H](C)c3ccccn3)c12 : inactive

// recorded activity change, negative = inhibition for COc1cc(C(C)C)c2c(c1)S(=O)(=O)N(COc1cc(=O)n3cccc(OCCN4CCCCC4)c3n1)C2=O : inactive

// recorded activity change, negative = inhibition for CC(NCc1ccc2c(c1)nc(NC(=O)c1ccc(-c3cn[nH]c3)s1)n2CC(C)(C)O)C(C)(C)C (stereo unspecified) : inactive

// recorded activity change, negative = inhibition for Cn1c(=O)n(-c2ccc(C(C)(C)C#N)cc2)c2c3cc(-c4cnc5ccccc5c4)ccc3ncc21 : inactive

###

# Lookup of reported z-score keyed by entry
assay comment: qHTS for identification of novel therapeutic agents for treatment of microphthalmiaassociated transcription factor (MiT) renal cell carcinoma (RCC) (AID 1963991);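 also: curves scaled with 100% = DMSO viability and 0% = empty wells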
condition context: TFE3-RCC viability, CellTiter-Glo, 48 h; measured here: UOK124 Z-AUC; stronger effect = lower value
Results filed as inconclusive are left out.
The reply should be a number, written without any unit.

compound=CC(C)c1cnn2c(NCc3ccccc3)cc(N[C@@H](CO)[C@H](O)CO)nc12 test_value=-0.933
compound="CN1c2cc(O)c(N=NC(N)=O)cc2CC1S(=O)(=O)O (stereo not given)" test_value=0.697
compound=CN1CC[C@@H](c2c(O)cc(O)c3c(=O)cc(-c4ccccc4Cl)oc23)[C@@H](O)C1 test_value=-1.53
compound=CC(C)(O)c1cc2nc(-c3cnc(N)nc3)nc(N3CCOCC3)c2s1 test_value=-0.824

Consider the record given below.
// recorded z-score for Cc1ccc(NC(=O)C2(c3ccc4c(c3)OC(F)(F)O4)CC2)nc1-c1cccc(C(=O)O)c1 : -1.92

###

assay comment: qHTS of pediatric cancer cell lines to identify multiple opportunities for drug repurposing: Primary screen for MG 63 (6-TG R) cells (AID 1347105); also: nearly all actives have a fitted effect of over 50% in size
condition context: MG 63 (6-TG R) viability, CellTiter-Glo, 48 h; series mostly up to 46 µM
Results filed as inconclusive are left out. Active and inactive are the calls of the source. The call rests on the fitted dose curve; in most records, active means well fitted cell-killing curve with a large enough effect; inconclusive means small, poorly fitted or top-dose-only effect; inactive means no such curve, though single readings can be large or run the other way.
Select the correct class. Options are active, inactive and nothing else.

compound=COc1cc2ncn(-c3cc(OCc4ccccc4C(F)(F)F)c(C(N)=O)s3)c2cc1OC category_label=active
compound="COc1ccc(CC2SC(=O)NC2=O)cc1C(=O)NCc1ccc(C(F)(F)F)cc1 (configuration not stated)" category_label=inactive
compound=C[C@H]1C[C@@H]2[C@@H]([C@@H](O)C[C@@]3(C)[C@H]2CC[C@]3(O)C(=O)CO)[C@@]2(C)C=CC(=O)C=C12 category_label=inactive

What outcome does the record of this test show for N#Cc1c(O)c2c(-c3ccc(-c4ccccc4O)cc3)csc2[nH]c1=O ? inactive

What outcome does the record of this test show for CC(C)(C)OC(=O)Nc1ccc(-c2cc(C(=O)NCCCCCCC(=O)NO)no2)cc1 ? inactive

What outcome does the record of this test show for CN(C)Cc1c(C(=O)NCCOc2ccc(C(=O)NO)cc2)oc2ccccc12 ? active

What outcome does the record of this test show for CCc1cc2c(cc1N1CCC(N3CCOCC3)CC1)C(C)(C)c1[nH]c3cc(C#N)ccc3c1C2=O ? inactive

What outcome does the record of this test show for Cc1cc(Nc2cc(N3CCN(C)CC3)nc(Sc3ccc(NC(=O)C4CC4)cc3)n2)n[nH]1 ? active

###

assay comment: Quantitative High-Throughput drug screen in 47 multiple myeloma cell lines against the NCATS MIPE library collection: H1112_PLB cell viability assay (AID 1918967; also: nearly all actives have a fitted effect of over 30% in size)
condition context: H1112 myeloma cells viability, ATP luminescence, 48 h; series mostly up to 45.8 µM
Inconclusive results are not listed. Active and inactive are the calls of the source. Calls come from the whole dose curve; as a rule, active = well fitted cell-killing curve with a large enough effect; inconclusive = small, poorly fitted or top-dose-only effect, or effect the other way; inactive = no such curve, though single readings can be large or run the other way.
Select the correct class. Options are active, inactive and nothing else.

What outcome does the record of this test show for Cc1cc(CN2CCN(c3c(Br)cnc4nc(-c5ccc(N6CCN(C)CC6)cc5)[nH]c34)CC2)no1 ? active

What outcome does the record of this test show for Cc1nc(N)ncc1-c1nc(N2CCOCC2)c2sc(C(C)(C)O)cc2n1 ? active

What outcome does the record of this test show for C=CC(=O)Nc1cccc(Oc2nc(Nc3ccc(N4CCN(C)CC4)cc3)ncc2Cl)c1 ? active

What outcome does the record of this test show for Cc1[nH]c2ccccc2c1CCNCc1ccc(C=CC(=O)NO)cc1 ? active

What outcome does the record of this test show for COc1ccc2c(OCc3nnc4ccc(-c5ccccc5)nn34)ccnc2c1 ? inactive

What outcome does the record of this test show for O=C(NC1CCNCC1)c1[nH]ncc1NC(=O)c1c(Cl)cccc1Cl ? active

What outcome does the record of this test show for CCCNC(=O)Nc1ccc(Oc2ncnc3cc(OC)c(OC)cc23)cc1Cl ? inactive

What outcome does the record of this test show for CC(C)(O)CCc1ccc(OCc2cc(-c3cccc(OC(F)F)c3)c3ncccc3c2)cc1 ? active

What outcome does the record of this test show for Nc1nc(-c2nn(Cc3ccccc3F)c3ncccc23)nc(N)c1N1CCOCC1 ? inactive

What outcome does the record of this test show for CC(C)Nc1cc(C(F)(F)F)cc2nc(NC(=O)c3cccnc3)nn12 ? inactive

What outcome does the record of this test show for COc1cc2c(NC3CCN(C(C)C)CC3)nc(C3CCCCC3)nc2cc1OCCCN1CCCC1 ? active

What outcome does the record of this test show for O=C(C=Cc1cccnc1)NCCCCC1CCN(C(=O)c2ccccc2)CC1 ? active
